- Measurement target: MRGPRX2-WT (wild-type MRGPRX2 receptor) (Homo sapiens, UniProt Q96LB1)
- Construct: expressed in transfected cells
- Sequence (Q96LB1 whole entry): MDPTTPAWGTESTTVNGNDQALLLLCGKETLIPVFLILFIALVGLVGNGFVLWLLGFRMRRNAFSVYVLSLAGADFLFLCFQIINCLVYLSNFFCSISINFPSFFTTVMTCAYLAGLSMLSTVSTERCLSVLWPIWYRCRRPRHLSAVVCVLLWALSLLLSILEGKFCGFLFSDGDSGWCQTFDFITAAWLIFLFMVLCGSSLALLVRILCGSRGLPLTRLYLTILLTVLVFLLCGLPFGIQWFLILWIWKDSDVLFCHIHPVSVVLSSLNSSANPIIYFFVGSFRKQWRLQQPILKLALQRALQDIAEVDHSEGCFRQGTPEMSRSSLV
- Protocol text: Primary HTS, Ca2+ mobilization (fluorescence ratio, B-score) in HEK293-Gα15 cells stably expressing wild-type MRGPRX2
- Assay type: cell-based
- Test parameters: 10 μM compound, Supplementary Table 2
Where a name gives a salt, the structure may show the parent alone.
Readout kind: B-scores (WT)
Please give only the number in your answer, with no unit.

Below: 5 molecules and their reported B-scores (WT).
CN1[C@@H]2CC[C@H]1C[C@@H](OC(=O)C(CO)c1ccccc1)C2 (stereo partly drawn) [Atropine Sulfate Monohydrate]: 24.16
CC(C)(C)NC[C@H](O)c1ccc(O)c(CO)c1: 12.18
CC(C)NCC(O)c1ccc(O)c(O)c1 (stereo not drawn) [Isoproterenol Hydrochloride]: 20.95
CNCCCN1c2ccccc2CCc2ccccc21 [Desipramine]: 13.96
CCn1cc(C(=O)O)c(=O)c2cc(F)c(N3CCNCC3)cc21: 28.07

// next item, B-scores (WT) requested
Tell me the measured B-scores (WT) of CNCCC=C1c2ccccc2CCc2ccccc21 [Nortriptyline Hydrochloride] , please.
16.29
